This collection of values is drawn from patent EP4810611A2.

tested-system: TRBV9+TRAV26 antigen
test-name: BLI (OctetRed 96), antigen on AR2G sensors, antibody 126-2 nM, 1:1 model; run 1
endpoint-label: kon (M⁻¹ s⁻¹)

anti-TRBV9-1 monoclonal antibody (antibody, human IgG1, kappa, V domains shown) VH: QIQLVQSGPELREPGESVKLSCKASGYTFTDYLVHWVKQAPGKGLKWMGWINTYTGTPTYADDFEGRFVFSLEASASTANLQISNLKNEDTATYFCARSWRRGLRGLGFDYWGQGVFVTVSS VL: DVQMTQSPYNLAASPGESVSINCKASKSINKYLAWYQQKPGKPNKLLIYDGSTLQSGIPSRFSGSGSGTDFTLTIRGLEPEDFGLYYCQQHNEYPPTFGAGTKLELKR | 515000
anti-TRBV9-3 monoclonal antibody (antibody, human IgG1, kappa, V domains shown) VH: QIQLVQSGPELREPGESVKLSCKASGYTFTDYLVHWVKQAPGKGLKWMGWINTYTGTPTYADDFEGRFVFSLEASASTANLQISNLKNEDTATYFCARSWRRGIRGLGFDYWGQGVFVTVSS VL: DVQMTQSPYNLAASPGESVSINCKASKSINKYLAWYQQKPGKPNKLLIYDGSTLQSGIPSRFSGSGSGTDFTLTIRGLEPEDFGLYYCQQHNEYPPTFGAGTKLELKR | 287000
anti-TRBV9-2 monoclonal antibody (antibody, human IgG1, kappa, V domains shown) VH: QIQLVQSGPELREPGESVKLSCKASGYTFTDYLVHWVKQAPGKGLKWMGWINTYTGTPTYADDFEGRFVFSLEASASTANLQISNLKNEDTATYFCARSWRRGLRGIGFDYWGQGVFVTVSS VL: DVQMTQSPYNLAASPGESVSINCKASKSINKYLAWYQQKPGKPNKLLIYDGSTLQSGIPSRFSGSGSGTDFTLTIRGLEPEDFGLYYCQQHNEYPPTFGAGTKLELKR | 447000
anti-TRBV9-4 monoclonal antibody (antibody, human IgG1, kappa, V domains shown) VH: QIQLVQSGPELREPGESVKLSCKASGYTFTDYLVHWVKQAPGKGLKWMGWINTYTGTPTYADDFEGRFVFSLEASASTANLQISNLKNEDTATYFCARSWRRGIRGIGFDYWGQGVFVTVSS VL: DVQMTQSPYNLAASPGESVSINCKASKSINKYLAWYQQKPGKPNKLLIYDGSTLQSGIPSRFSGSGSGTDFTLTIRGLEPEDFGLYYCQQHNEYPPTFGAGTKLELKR | 865000
